Reference source: patent US4739067A

target: Haloperidol Receptor (Bos taurus, UniProt P20288); construct: from tissue; assay: Haloperidol Receptor Binding (dopaminergic agents); details: at 10^-6 M; read-out: % Inhibition (Haloperidol Receptor Binding)
Sequence (P20288 whole entry): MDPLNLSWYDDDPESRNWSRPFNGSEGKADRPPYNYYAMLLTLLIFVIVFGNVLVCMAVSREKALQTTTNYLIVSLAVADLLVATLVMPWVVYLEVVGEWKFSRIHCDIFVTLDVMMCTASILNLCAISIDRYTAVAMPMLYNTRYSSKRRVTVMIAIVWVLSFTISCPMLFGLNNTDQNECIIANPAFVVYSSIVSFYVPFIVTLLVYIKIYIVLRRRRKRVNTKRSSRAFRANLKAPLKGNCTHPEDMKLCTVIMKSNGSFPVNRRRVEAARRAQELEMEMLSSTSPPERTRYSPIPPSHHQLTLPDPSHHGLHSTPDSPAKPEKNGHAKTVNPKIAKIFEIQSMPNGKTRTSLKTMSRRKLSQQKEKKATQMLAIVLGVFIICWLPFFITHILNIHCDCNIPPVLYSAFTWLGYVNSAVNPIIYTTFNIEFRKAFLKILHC
testReadout: inhibition at 1 µM (%)
The answer is to be given in %; state only the numeric part.

Please indicate inhibition at 1 µM recorded for CC(C)CCN1CCC=C(c2csc(N)n2)C1 65

Input CCCCCN1CCC=C(c2csc(N)n2)C1 , output reported inhibition at 1 µM. 26

Supply inhibition at 1 µM value. Item: CCCN1CCC=C(c2csc(NC(C)=O)n2)C1 0

Report inhibition at 1 µM for CCCCN1CCC=C(c2csc(N)n2)C1 57

Report measured inhibition at 1 µM; entry is CCCN1CCCC(c2csc(NC(C)=O)n2)C1 (stereo not shown) 9

Supply measured inhibition at 1 µM of CCN1CCC=C(c2csc(N)n2)C1 in your reply. 49

State, in one line, measured inhibition at 1 µM of CCOCCN1CCC=C(c2csc(N)n2)C1 35

====

molecular target: Haloperidol Receptor (Bos taurus, UniProt P20288); construct: from tissue; assay: Haloperidol Receptor Binding (dopaminergic agents); conditions: at 10^-6 M; read-out: % Inhibition (Haloperidol Receptor Binding)
Criterion: inhibition at 1 µM meeting or surpassing 70%. Met: y. Not met: n.

Threshold query (inhibition at 1 µM >= 70%) on CCCCCN1CCC=C(c2csc(NC(C)=O)n2)C1 n

Entry CN1CCC=C(c2csc(N)n2)C1 [III (double bond) R=R'=H; R"=CH3] : is its inhibition at 1 µM no less than 70%? n

Record C=CCN1CCC=C(c2csc(N)n2)C1 [III (double bond) R=R'=H; R"=CH2 CH=CH2] ; criterion: inhibition at 1 µM no lower than 70%. Met? n

Could you verify whether the entry CCCN1CCC=C(c2csc(N)n2)C1 [III (double bond) R=R'=H; R"=(CH2)2 CH3] shows inhibition at 1 µM of no less than 70%? n

inhibition at 1 µM >= 70% for CCCCCCN1CCC=C(c2csc(N)n2)C1 [III (double bond) R=R'=H; R"=(CH2)5 CH3] ? y
